Consider the following compounds; for each one, report its melting point.
Express it in °C; write the number only.

Look up melting point for this compound: CCc1nc2ccc(Cl)cn2c1C(=O)NCc1ccc(N2CC3(CC(c4ccccn4)C3)C2)cc1 139.57

Entry CCc1nn2c(c1C(=O)NCc1ccc(C3CC4(C3)CN(c3ccc(OC(F)(F)F)cc3)C4)cc1)CCCC2 has what melting point? 135.21

Could you tell me which melting point is on file for Cc1nn2ccccc2c1C(=O)NCc1ccc(C2CC3(C2)CN(c2ccc(OC(F)(F)F)cc2)C3)cc1 ? 158.48

Please report the recorded melting point for CCc1nc2ncc(Cl)cn2c1C(=O)NCc1ccc(C2CC3(C2)CN(c2cncnc2)C3)cc1 . 188.07

Can you share its melting point? I mean this compound: CCc1nc2ccc(Cl)cn2c1C(=O)NCc1ccc(N2CC3(CC(OC(F)(F)F)C3)C2)cc1 167.85

I would be grateful if you could share the reported melting point for CCc1nc2ccc(Cl)cn2c1C(=O)NCc1ccc(N2CC3(CC(OC)C3)C2)cc1 . 137.48

Which melting point value belongs to CCc1nc2sc(C)cn2c1C(=O)NCc1ccc(N2CC3(C2)CN(c2ccc(OC(F)(F)F)cc2)C3)cc1 ? 180.57

From: patent US20190330189A1
